tested on: HeLa cells; assay: MTT cell viability assay on HeLa cervical cancer cells; type: cell-based, human; conditions: 30 µM, 72 hours
quantity.measured: Mean values (%) of primary growth inhibitory screen (viability in %), HeLa
Numbers only, in %.

Could you tell me Mean values (%) of primary growth inhibitory screen (viability in %), HeLa for each of these compounds? They are listed below.
1. Cc1c2c(nn1-c1ccc(C#N)cc1)C[C@@H]1CC[C@@H]3[C@H](CC[C@]4(C)C(=O)CC[C@@H]34)[C@@]1(C)C2
2. COc1ccc(-n2nc3c(c2C)C[C@@]2(C)[C@@H](CC[C@@H]4[C@@H]2CC[C@]2(C)C(=O)CC[C@@H]42)C3)cc1
3. Cc1c2c(nn1-c1ccc(F)cc1)C[C@@H]1CC[C@@H]3[C@H](CC[C@]4(C)C(=O)CC[C@@H]34)[C@@]1(C)C2
4. Cc1ccc(-n2nc3c(c2C)C[C@@]2(C)[C@@H](CC[C@@H]4[C@@H]2CC[C@]2(C)C(=O)CC[C@@H]42)C3)c(C)c1

[out]
1: 36.4; 2: 41.8; 3: 50.5; 4: 30.7

----------
Kindly state Mean values (%) of primary growth inhibitory screen (viability in %), HeLa for each of the entries shown.
test system: HeLa cells; assay: MTT cell viability assay on HeLa cervical cancer cells; assay type: cell-based, human; conditions: 30 µM, 72 hours
One number for each entry, in %.

Worked examples, 5 compounds total:
>  <compound>
Cc1c2c(nn1-c1ccccc1)C[C@@H]1CC[C@@H]3[C@H](CC[C@]4(C)C(=O)CC[C@@H]34)[C@@]1(C)C2

>  <study.target>
HeLa cells

>  <readout.units>
%

>  <observed>
26.2

$$$$
>  <compound>
Cc1c2c(nn1-c1ccc(Br)cc1)C[C@@H]1CC[C@@H]3[C@H](CC[C@]4(C)[C@@H](O)CC[C@@H]34)[C@@]1(C)C2

>  <study.target>
HeLa cells

>  <readout.units>
%

>  <observed>
5.8

$$$$
>  <compound>
Cc1c2c(nn1-c1ccc(F)cc1)CC1CCC3C4CCC(O)C4(C)CCC3C1(C)C2 (stereo not drawn)

>  <study.target>
HeLa cells

>  <readout.units>
%

>  <observed>
7.6

$$$$
>  <compound>
Cc1ccccc1-n1nc2c(c1C)C[C@@]1(C)[C@@H](CC[C@@H]3[C@@H]1CC[C@]1(C)C(=O)CC[C@@H]31)C2

>  <study.target>
HeLa cells

>  <readout.units>
%

>  <observed>
66.8

$$$$
>  <compound>
Cc1ccc(-n2nc3c(c2C)CC2(C)C(CCC4C5CCC(O)C5(C)CCC42)C3)cc1 (stereo not drawn)

>  <study.target>
HeLa cells

>  <readout.units>
%

>  <observed>
8.0

$$$$

Could you tell me Mean values (%) of primary growth inhibitory screen (viability in %), HeLa for each of these compounds? They are listed below.
1. Cc1ccc(-n2nc3c(c2C)C[C@@]2(C)[C@@H](CC[C@@H]4[C@@H]2CC[C@]2(C)[C@@H](O)CC[C@@H]42)C3)c(C)c1
2. Cc1ccc(-n2nc3c(c2C)CC2(C)C(CCC4C5CCC(=O)C5(C)CCC42)C3)cc1 (stereo not drawn)
3. Cc1c2c(nn1-c1ccc([N+](=O)[O-])cc1)C[C@@H]1CC[C@@H]3[C@H](CC[C@]4(C)C(=O)CC[C@@H]34)[C@@]1(C)C2

[out]
56.1
38.5
29.4

Could you tell me Mean values (%) of primary growth inhibitory screen (viability in %), HeLa for each of these compounds? They are listed below.
1. Cc1c2c(nn1-c1ccc([N+](=O)[O-])cc1)CC1CCC3C4CCC(O)C4(C)CCC3C1(C)C2 (stereo not drawn)
2. Cc1c2c(nn1-c1ccc(Cl)cc1)C[C@@H]1CC[C@@H]3[C@H](CC[C@]4(C)[C@@H](O)CC[C@@H]34)[C@@]1(C)C2
3. COc1ccc(-n2nc3c(c2C)C[C@@]2(C)[C@@H](CC[C@@H]4[C@@H]2CC[C@]2(C)[C@@H](O)CC[C@@H]42)C3)cc1
4. Cc1ccccc1-n1nc2c(c1C)C[C@@]1(C)[C@@H](CC[C@@H]3[C@@H]1CC[C@]1(C)[C@@H](O)CC[C@@H]31)C2
5. Cc1c2c(nn1-c1ccc(C#N)cc1)C[C@@H]1CC[C@@H]3[C@H](CC[C@]4(C)[C@@H](O)CC[C@@H]34)[C@@]1(C)C2
6. Cc1c2c(nn1-c1ccccc1)CC1CCC3C4CCC(O)C4(C)CCC3C1(C)C2 (stereo not drawn)
7. Cc1c2c(nn1-c1ccc(Cl)cc1)C[C@@H]1CC[C@@H]3[C@H](CC[C@]4(C)C(=O)CC[C@@H]34)[C@@]1(C)C2

[out]
64.6
4.7
15.1
34.1
72.5
46.7
39.0

----------
Test system: MCF-7 cells
Assay: MTT cell viability assay on MCF-7 breast cancer cells
Type: cell-based, human
Conditions: 10 µM, 72 hours
Procedure: HeLa, MCF-7 and MDA-MB-231 cells were obtained from Sigma-Aldrich and maintained as reported previously. MRC-5, PC-3, DU 145 cells were purchased from American Type Culture Collection (ATCC, Manassas, VA, USA). […] Each test compound was dissolved in cell culture grade DMSO (Molar Chemicals, Halásztelek, Hungary) in a final concentration of 10 mM. […] Formazan crystals were solubilized in DMSO and extinction was measured at 570 nm using a Synergy HTX plate reader (BioTech-Hungary, Budapest, Hungary). […]
quantity.measured: Mean values (%) of primary growth inhibitory screen (viability in %), MCF-7
Give bare numbers, in %.

Worked examples, 3 compounds total:
>  <compound>
Cc1ccccc1-n1nc2c(c1C)C[C@@]1(C)[C@@H](CC[C@@H]3[C@@H]1CC[C@]1(C)[C@@H](O)CC[C@@H]31)C2

>  <readout.units>
%

>  <observed>
39.1

$$$$
>  <compound>
Cc1c2c(nn1-c1ccccc1)C[C@@H]1CC[C@@H]3[C@H](CC[C@]4(C)C(=O)CC[C@@H]34)[C@@]1(C)C2

>  <readout.units>
%

>  <observed>
73.3

$$$$
>  <compound>
Cc1c2c(nn1-c1ccccc1)CC1CCC3C4CCC(O)C4(C)CCC3C1(C)C2 (stereo not shown)

>  <readout.units>
%

>  <observed>
57.1

$$$$

# evaluate next
[in] Entry under review: Cc1c2c(nn1-c1ccc(C#N)cc1)C[C@@H]1CC[C@@H]3[C@H](CC[C@]4(C)C(=O)CC[C@@H]34)[C@@]1(C)C2 . Reported Mean values (%) of primary growth inhibitory screen (viability in %), MCF-7?
[out] 53.2

----------
test system: MCF-7 cells; assay: MTT cell viability assay on MCF-7 breast cancer cells; assay type: cell-based, human; conditions: 10 µM, 72 hours
Threshold 50%: Mean values (%) of primary growth inhibitory screen (viability in %), MCF-7 strictly smaller gives True, otherwise False.

Some entries whose results are on file:
>  <molecule>
Cc1c2c(nn1-c1ccc(C#N)cc1)C[C@@H]1CC[C@@H]3[C@H](CC[C@]4(C)[C@@H](O)CC[C@@H]34)[C@@]1(C)C2

>  <discrete.label>
False

$$$$
>  <molecule>
Cc1c2c(nn1-c1ccc([N+](=O)[O-])cc1)C[C@@H]1CC[C@@H]3[C@H](CC[C@]4(C)C(=O)CC[C@@H]34)[C@@]1(C)C2

>  <discrete.label>
True

$$$$
>  <molecule>
Cc1ccc(-n2nc3c(c2C)CC2(C)C(CCC4C5CCC(=O)C5(C)CCC42)C3)cc1 (stereo not shown)

>  <discrete.label>
False

$$$$

[in] Hello, is Mean values (%) of primary growth inhibitory screen (viability in %), MCF-7 of the following molecule strictly smaller than 50%? Cc1c2c(nn1-c1ccc(F)cc1)CC1CCC3C4CCC(O)C4(C)CCC3C1(C)C2 (stereo not shown)
[out] False

[in] Hello, is Mean values (%) of primary growth inhibitory screen (viability in %), MCF-7 of the following molecule strictly smaller than 50%? COc1ccc(-n2nc3c(c2C)C[C@@]2(C)[C@@H](CC[C@@H]4[C@@H]2CC[C@]2(C)[C@@H](O)CC[C@@H]42)C3)cc1
[out] True

[in] Hello, is Mean values (%) of primary growth inhibitory screen (viability in %), MCF-7 of the following molecule strictly smaller than 50%? Cc1ccccc1-n1nc2c(c1C)C[C@@]1(C)[C@@H](CC[C@@H]3[C@@H]1CC[C@]1(C)C(=O)CC[C@@H]31)C2
[out] False

----------
system: MRC-5 cells; experiment: MTT cell viability assay on non-cancerous MRC-5 fibroblasts; type: cell-based; details: MTT, 72 hours, ± SD
quantity.measured: IC50 (µM)
Answers are plain numbers, in µM.

>  <given.smiles>
Cc1c2c(nn1-c1ccc(Cl)cc1)C[C@@H]1CC[C@@H]3[C@H](CC[C@]4(C)[C@@H](O)CC[C@@H]34)[C@@]1(C)C2

>  <readout.units>
µM

>  <IC50>
15.6

$$$$
>  <given.smiles>
Cc1c2c(nn1-c1ccc([N+](=O)[O-])cc1)C[C@@H]1CC[C@@H]3[C@H](CC[C@]4(C)C(=O)CC[C@@H]34)[C@@]1(C)C2

>  <readout.units>
µM

>  <IC50>
25.5

$$$$

# evaluate next
[in] Lab request: please report IC50 under test system MRC-5 cells for COc1ccc(-n2nc3c(c2C)C[C@@]2(C)[C@@H](CC[C@@H]4[C@@H]2CC[C@]2(C)[C@@H](O)CC[C@@H]42)C3)cc1
[out] 8.6
